biological target: Cannabinoid receptor 1 (Rattus norvegicus); test: In vitro binding affinity was determined against rat brain Cannabinoid receptor 1; conditions: read-out: Ki
Sequence (P20272 whole entry): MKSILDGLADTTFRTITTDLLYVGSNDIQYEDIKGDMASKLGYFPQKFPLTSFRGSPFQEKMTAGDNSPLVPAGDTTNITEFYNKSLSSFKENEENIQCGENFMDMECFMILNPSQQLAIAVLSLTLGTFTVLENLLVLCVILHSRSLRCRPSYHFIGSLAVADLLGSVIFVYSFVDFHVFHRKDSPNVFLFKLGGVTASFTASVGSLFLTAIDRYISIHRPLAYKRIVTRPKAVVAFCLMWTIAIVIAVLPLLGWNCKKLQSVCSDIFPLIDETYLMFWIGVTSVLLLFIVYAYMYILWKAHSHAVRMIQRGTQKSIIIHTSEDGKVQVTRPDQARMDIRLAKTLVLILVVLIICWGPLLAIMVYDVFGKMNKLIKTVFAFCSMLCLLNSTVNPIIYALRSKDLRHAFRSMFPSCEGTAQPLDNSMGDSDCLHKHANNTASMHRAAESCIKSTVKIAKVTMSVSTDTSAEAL
pKi: −log10 of the molar value.
QUANTITY MEASURED: pKi

> print(dat)
                                   compound  quantity.measured  recorded.measurement
1  CCCCC/C=C\C/C=C\C/C=C\C/C=C\CCCC(=O)NCCCCC                pKi                < 6.00
2  CCCCC/C=C\C/C=C\C/C=C\C/C=C\CCCC(N)=O [ARACHIDONAMIDE]                pKi                < 6.00
3  CCCCC/C=C\C/C=C\C/C=C\C/C=C\CCCC(=O)N(C)C                pKi                < 6.00
